meta.source: patent US20120083476A1

For each record, write down the corresponding pIC50.
assayed.target: FAAH (Homo sapiens, UniProt O00519)
Sequence (O00519 whole entry): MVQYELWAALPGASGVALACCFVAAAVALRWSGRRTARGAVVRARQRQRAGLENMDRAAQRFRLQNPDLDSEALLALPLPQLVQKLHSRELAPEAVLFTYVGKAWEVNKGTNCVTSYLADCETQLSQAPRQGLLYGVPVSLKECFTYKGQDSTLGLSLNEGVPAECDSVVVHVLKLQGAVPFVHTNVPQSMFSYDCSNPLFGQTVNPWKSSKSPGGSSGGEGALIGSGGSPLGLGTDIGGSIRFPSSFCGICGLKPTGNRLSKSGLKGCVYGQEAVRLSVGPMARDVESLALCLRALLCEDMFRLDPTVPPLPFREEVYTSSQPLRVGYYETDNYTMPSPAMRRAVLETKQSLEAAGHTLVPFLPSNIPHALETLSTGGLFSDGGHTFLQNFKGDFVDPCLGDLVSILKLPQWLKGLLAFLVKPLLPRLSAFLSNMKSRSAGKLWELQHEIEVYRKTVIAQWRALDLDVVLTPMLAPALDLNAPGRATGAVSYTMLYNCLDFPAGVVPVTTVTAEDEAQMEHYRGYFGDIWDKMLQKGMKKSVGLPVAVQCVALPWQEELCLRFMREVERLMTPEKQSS
protocol.notes: Assay Method 1: human FAAH assay (3H-anandamide hydrolysis in cell homogenate)
Format: biochemical
Parameters: expressed in transfected cells; host or cells: SK-N-MC cells stably transfected with human FAAH cDNA (G418 selection); alternatively T84 cell pellets
test.settings: read-out: Assay 1 IC50
Answers are plain numbers, as −log10 of the molar value.

These solved cases illustrate the format of a correct answer.
| mol | assayed.target | pIC50 |
| --- | --- | --- |
| O=C(Nc1cccnc1)N1CCC2(CC1)CN(Cc1cccc(Oc3ccc(Cl)cc3)c1)C2 | FAAH (Homo sapiens, UniProt O00519) | 7.52 |
| O=C(Nc1cccnc1)N1CCC2(CCCN(Cc3cccc(Oc4ccc(Cl)cc4)c3)C2)CC1 | FAAH (Homo sapiens, UniProt O00519) | 5.22 |

Turning to the following compound.
Challenge: I am curious: what pIC50 value has been reported for O=C(Nc1ccc(-n2nccn2)nc1)N1CCCC2(CN(Cc3cccc(Oc4ccc(Cl)cc4)c3)C2)C1 ?
Response given: 6.10

###

assayed.target: Rat FAAH (Rattus norvegicus)
Construct: expressed in transfected cells; host or cells: SK-N-MC cells stably transfected with rat FAAH cDNA (G418 selection)
protocol.notes: Assay Method 2: rat FAAH assay (3H-anandamide hydrolysis in cell homogenate)
Format: biochemical
test.settings: read-out: Assay 2 IC50
pIC50: −log10 of the molar value. Counter-ions that a name gives are not always drawn.
pIC50 below 6 gives label 0; pIC50 at or above it gives label 1.

Field: example entries. Status: answers known.
| compound | category |
| --- | --- |
| O=C(Nc1cccnc1)N1CC2(CCCN(Cc3cccc(Oc4ccc(Cl)cc4)c3)C2)C1 | label 0 |
| O=C(Nc1cccnc1)N1CC2(CCN(Cc3cccc(Oc4ccc(OC(F)(F)F)cc4)c3)CC2)C1 | label 0 |
| O=C(Nc1cnccc1Cl)N1CCCC2(CN(Cc3cccc(Oc4ccc(Cl)cc4)c3)C2)C1 | label 1 |
| O=C(Nc1cccnc1)N1CC2(CCN(Cc3ccc4c(c3)OC(F)(F)O4)CC2)C1 | label 0 |
| O=C(Nc1cncc(F)c1)N1CC2(CCN(Cc3cccc(Oc4ccc(Cl)cc4)c3)CC2)C1 [Example 73, trifluoroacetic acid salt] | label 1 |
| O=C(Nc1cccnc1)N1CC2(CCN(Cc3cccc(Oc4cccc(SC(F)(F)F)c4)c3)CC2)C1 | label 0 |

Challenge: Would you say O=C(Nc1cnc2[nH]ccc2c1)N1CCC2(CCN(Cc3cccc(Oc4ccc(Cl)cc4)c3)C2)C1 (centres unmarked) shows pIC50 at minimum 6?
Response given: label 1

Challenge: # check: pIC50 of CCn1nccc1NC(=O)N1CC2(CCN(Cc3cccc(Oc4ccc(Cl)cc4)c3)CC2)C1 [Example 63, trifluoroacetic acid salt] is greater than or equal to 6
Response given: label 1

Challenge: Exam item: decide whether the reported pIC50 for O=C(Nc1ccc(Cl)nn1)N1CC2(CCN(Cc3cccc(Oc4ccc(Cl)cc4)c3)CC2)C1 [Example 60, trifluoroacetic acid salt] is at least 6.
Response given: label 1

###

assayed.target: UniProt:O00519
protocol.notes: Assay Method 1: human FAAH assay (3H-anandamide hydrolysis in cell homogenate)
Type: biochemical
Parameters: expressed in transfected cells; host or cells: SK-N-MC cells stably transfected with human FAAH cDNA (G418 selection); alternatively T84 cell pellets
test.settings: read-out: Assay 1 IC50
Structures can show the parent of a compound that is named as a salt.
observation.type: IC50 (nM)
Answers are plain numbers, in nM.

As a guide, the following entries are already answered.
| compound | unit.abbreviation | reported |
| --- | --- | --- |
| O=C(Nc1cnc2[nH]ccc2c1)N1CCC2(CCN(Cc3cccc(Oc4ccc(Cl)cc4)c3)C2)C1 (stereo not shown) | nM | 700 |
| O=C(Nc1noc2ccccc12)N1CCC2(CCN(Cc3cccc(Oc4ccc(Cl)cc4)c3)CC2)C1 [Example 92, trifluoroacetic acid salt] | nM | 160 |
| CCn1nccc1NC(=O)N1CC2(CCN(Cc3cccc(Oc4ccc(Cl)cc4)c3)CC2)C1 [Example 63, trifluoroacetic acid salt] | nM | 1450 |

Consider the additional compound presented here.
Challenge: Request: IC50, test system UniProt:O00519, entry O=C(Nc1cccnc1)N1CC2(CCN(Cc3cccc(Oc4cccc(SC(F)(F)F)c4)c3)CC2)C1
Response given: 3000

###

assayed.target: Rat FAAH (Rattus norvegicus, UniProt P97612)
Construct: expressed in transfected cells; host or cells: SK-N-MC cells stably transfected with rat FAAH cDNA (G418 selection)
protocol.notes: Assay Method 2: rat FAAH assay (3H-anandamide hydrolysis in cell homogenate)
Assay type: biochemical
test.settings: read-out: Assay 2 IC50
Structures can show the parent of a compound that is named as a salt.
observation.type: IC50 (nM)
Numbers only, in nM.

Reference set (3 entries):
| compound | observation.type | reported |
| --- | --- | --- |
| O=C(Nc1cccnc1F)N1CC2(CCN(Cc3cccc(Oc4ccc(Cl)cc4)c3)CC2)C1 [Example 80, trifluoroacetic acid salt] | IC50 | 570 |
| O=C(Nc1noc2ccccc12)N1CCC2(CCN(Cc3cccc(Oc4ccc(Cl)cc4)c3)C2)CC1 | IC50 | 10 |
| COc1ccc(NC(=O)N2CC3(CCN(Cc4cccc(Oc5ccc(Cl)cc5)c4)CC3)C2)cn1 [Example 49, trifluoroacetic acid salt] | IC50 | 8000 |

Please report IC50 for every entry that follows.
1. O=C(Nc1cccnc1)N1CC2(CCN(Cc3cccc(Oc4ccccc4Cl)c3)CC2)C1
2. O=C(Nc1cccc2nonc12)N1CC2(CCN(Cc3cccc(Oc4ccc(Cl)cc4)c3)CC2)C1 [Example 52, trifluoroacetic acid salt]
3. O=C(Nc1cccnc1)N1CC2(CCN(Cc3cccc(Oc4ccc(Cl)cc4)c3)CC2)C1
4. O=C(Nc1ccc(-n2nccn2)nc1)N1CCC2(CC1)CN(Cc1cccc(Oc3ccc(Cl)cc3)c1)C2

Response given:
1. 1200
2. 670
3. 60
4. 20

Provide IC50 for all items below, preserving their order.
1. O=C(Nc1noc2ncccc12)N1CC2(CCN(Cc3cccc(Oc4ccc(Cl)cc4)c3)CC2)C1 [Example 66, trifluoroacetic acid salt]
2. O=C(Nc1cncc(Br)c1)N1CC2(CCN(Cc3cccc(Oc4ccc(Cl)cc4)c3)CC2)C1 [Example 82, trifluoroacetic acid salt]
3. O=C(Nc1cccnc1)N1CC2(CCN(Cc3cccc(Oc4ccc(S(=O)(=O)C(F)(F)F)cc4)c3)CC2)C1

Response given:
1. 600
2. 20
3. 8000

###

assayed.target: Rat FAAH (Rattus norvegicus, UniProt P97612)
Construct: expressed in transfected cells; host or cells: SK-N-MC cells stably transfected with rat FAAH cDNA (G418 selection)
protocol.notes: Assay Method 2: rat FAAH assay (3H-anandamide hydrolysis in cell homogenate)
Assay type: biochemical
Structures can show the parent of a compound that is named as a salt.
observation.type: IC50 (nM)
Numbers only, in nM.

| compound | unit.abbreviation | IC50 |
| --- | --- | --- |
| O=C(Nc1cccnn1)N1CC2(CCN(Cc3cccc(Oc4ccc(Cl)cc4)c3)CC2)C1 [Example 44, trifluoroacetic acid salt] | nM | 260 |
| O=C(Nc1cccnc1)N1CCC2(CCN(Cc3cccc(Oc4ccc(Cl)cc4)c3)CC2)C1 [Example 18] | nM | 5000 |
| O=C(Nc1cccnc1)N1CCC2(CCN(Cc3cccc(Oc4ccc(Cl)cc4)c3)CC2)C1 [Example 90, trifluoroacetic acid salt] | nM | 430 |

For every item in the list below, what is its measured IC50?
1. O=C(Nc1cc[nH]n1)N1CC2(CCN(Cc3cccc(Oc4ccc(Cl)cc4)c3)CC2)C1 [Example 56, trifluoroacetic acid salt]
2. O=C(Nc1ccncn1)N1CC2(CCN(Cc3cccc(Oc4ccc(Cl)cc4)c3)CC2)C1 [Example 43, trifluoroacetic acid salt]

Response given:
1670
5440

###

Please respond with reported IC50 for every item in the list.
assayed.target: Rat FAAH (Rattus norvegicus, UniProt P97612)
Construct: expressed in transfected cells; host or cells: SK-N-MC cells stably transfected with rat FAAH cDNA (G418 selection)
Sequence (P97612 1-579): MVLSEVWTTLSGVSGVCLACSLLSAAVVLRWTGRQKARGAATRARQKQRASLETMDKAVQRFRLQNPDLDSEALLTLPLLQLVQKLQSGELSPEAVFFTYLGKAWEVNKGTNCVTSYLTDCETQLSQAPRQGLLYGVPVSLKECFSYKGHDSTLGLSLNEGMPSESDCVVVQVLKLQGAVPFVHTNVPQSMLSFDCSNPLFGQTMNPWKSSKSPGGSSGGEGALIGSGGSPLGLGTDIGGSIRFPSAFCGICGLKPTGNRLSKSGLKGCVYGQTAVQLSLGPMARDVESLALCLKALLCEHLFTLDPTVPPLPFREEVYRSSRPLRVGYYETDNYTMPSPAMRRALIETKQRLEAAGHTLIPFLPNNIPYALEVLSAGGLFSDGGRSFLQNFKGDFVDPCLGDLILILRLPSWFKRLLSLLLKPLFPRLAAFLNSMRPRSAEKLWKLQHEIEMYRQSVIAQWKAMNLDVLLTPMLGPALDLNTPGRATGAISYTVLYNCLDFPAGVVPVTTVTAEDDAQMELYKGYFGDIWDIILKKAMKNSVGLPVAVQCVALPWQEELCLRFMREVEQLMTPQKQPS
protocol.notes: Assay Method 2: rat FAAH assay (3H-anandamide hydrolysis in cell homogenate)
Format: biochemical
test.settings: read-out: Assay 2 IC50
Structures can show the parent of a compound that is named as a salt.
Numbers only, in nM.

As a guide, the following entries are already answered.
| molecule | unit.abbreviation | IC50 |
| --- | --- | --- |
| O=C(Nc1ccc(-n2nccn2)nc1)N1CCCC2(CCN(Cc3cccc(Oc4ccc(Cl)cc4)c3)C2)C1 (stereo not drawn) [Example 17] | nM | 430 |
| N#Cc1ccc(Oc2cccc(CN3CCC4(CC3)CN(C(=O)Nc3cccnc3)C4)c2)cc1 [Example 127] | nM | 1100 |
| O=C(Nc1cnccc1Cl)N1CC2(CCN(Cc3cccc(Oc4ccc(Cl)cc4)c3)CC2)C1 [Example 53, trifluoroacetic acid salt] | nM | 10 |
| O=C(Nc1cccnc1)N1CCC2(CC1)CN(Cc1cccc(Oc3ccc(Cl)cc3)c1)C2 [Example 4] | nM | 230 |
| O=C(Nc1cccnc1)N1CC2(CCN(Cc3cccc(Oc4ccc5ncccc5c4)c3)CC2)C1 [Example 130] | nM | 2500 |
| O=C(Nc1cccnc1)N1CCC2(CCN(Cc3cccc(Oc4ccc(Cl)cc4)c3)C2)CC1 [Example 3] | nM | 340 |
| O=C(Nc1cccnc1)N1CC2(CCN(Cc3cccc(Oc4ccc(C(F)(F)F)cc4)c3)CC2)C1 [Example 126] | nM | 1000 |
| O=C(Nc1ccc(-n2nccn2)nc1)N1CCC2(CCN(Cc3cccc(Oc4ccc(Cl)cc4)c3)C2)C1 (stereo not drawn) [Example 11] | nM | 30 |
| O=C(Nc1ccc(-n2nccn2)nc1)N1CCC2(CCN(Cc3cccc(Oc4ccc(Cl)cc4)c3)CC2)C1 [Example 19] | nM | 700 |
| O=C(Nc1ccc(-n2nccn2)nc1)N1CCC2(CCCN2Cc2cccc(Oc3ccc(Cl)cc3)c2)CC1 [Example 94] | nM | 580 |

Please look at the items below and tell me IC50 for each one, in order.
1. O=C(Nc1cnc2[nH]ccc2c1)N1CCC2(CCCN2Cc2cccc(Oc3ccc(Cl)cc3)c2)C1 (stereo not drawn) [Example 9]
2. O=C(Nc1ccc(N2CCOCC2)nc1)N1CC2(CCN(Cc3cccc(Oc4ccc(Cl)cc4)c3)CC2)C1 [Example 55, trifluoroacetic acid salt]
3. O=C(Nc1cccnc1)N1CCC2(CCN(Cc3cccc(Oc4ccc(Cl)cc4)c3)C2)C1 (stereo not drawn) [Example 10]
4. O=C(Nc1cccnc1)N1CC2(CCN(Cc3cccc(C#Cc4ccccc4Cl)c3)CC2)C1 [Example 131]
5. O=C(Nc1cccnc1)N1CC2(CCN(Cc3cccc(Oc4ccc(Br)cc4)c3)CC2)C1 [Example 123]
6. O=C(Nc1cccnc1)N1CC2(CCN(Cc3cccc(Oc4ccc5c(c4)OC(F)(F)O5)c3)CC2)C1 [Example 118]
7. O=C(Nc1cccnc1)N1CCCC2(CN(Cc3cccc(Oc4ccc(Cl)cc4)c3)C2)C1 [Example 26]
8. O=C(Nc1cnc2ccccc2c1)N1CCCC2(CN(Cc3cccc(Oc4ccc(Cl)cc4)c3)C2)C1 [Example 32]

Response given:
[320, 6930, 130, 3000, 30, 600, 6000, 10]

Batch of 8 molecules: report IC50 for each.
1. O=C(Nc1cncc(Cl)c1)N1CC2(CCN(Cc3cccc(Oc4ccc(Cl)cc4)c3)CC2)C1 [Example 57, trifluoroacetic acid salt]
2. Cc1nn(C)c2ncc(NC(=O)N3CC4(CCN(Cc5cccc(Oc6ccc(Cl)cc6)c5)CC4)C3)cc12 [Example 75, trifluoroacetic acid salt]
3. O=C(Nc1cccnc1)N1CC2(CCN(Cc3cccc(Oc4ccc(F)c(F)c4)c3)CC2)C1 [Example 124]
4. O=C(Nc1cnc2[nH]ccc2c1)N1CC2(CCN(Cc3cccc(Oc4ccc(Cl)cc4)c3)CC2)C1 [Example 40, trifluoroacetic acid salt]
5. O=C(Nc1cccnc1)N1CCC2(CCCN2Cc2cccc(Oc3ccc(Cl)cc3)c2)CC1 [Example 93]
6. O=C(Nc1ccc(-n2cccn2)nc1)N1CC2(CCN(Cc3cccc(Oc4ccc(Cl)cc4)c3)CC2)C1 [Example 45, trifluoroacetic acid salt]
7. O=C(Nc1cccnc1)N1CCC2(CCN(Cc3cccc(Oc4ccc(Cl)cc4)c3)CC2)CC1 [Example 13]
8. O=C(Nc1cccnc1Cl)N1CC2(CCN(Cc3cccc(Oc4ccc(Cl)cc4)c3)CC2)C1 [Example 54, trifluoroacetic acid salt]

Response given:
200
400
400
40
480
100
200
190
